STUDY TARGET: SHP2-C SH2;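 note: peptide library displayed on the E. coli surface as eCPX fusions, selected cells deep-sequenced, score is each peptide's frequency after selection divided by its frequency in the input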
MEASUREMENT DESCRIPTION: SH2 binding enrichment of the phosphorylated peptide, bacterial display (enrichment ratio); higher = better substrate or ligand; peptides without Tyr show the background
# cutoff 0.8 applies to SH2 binding enrichment; >= gives 1, < gives 0

- SEQUENCE: "FLQTDYTSQVS [FRMPD1_Y846]"
  STUDY TARGET: "SHP2-C SH2"
  CLASS ASSIGNMENT: 1
- SEQUENCE: "NPSFNYEIVNR [DYNC1H1_Y3379_YF]"
  STUDY TARGET: "SHP2-C SH2"
  CLASS ASSIGNMENT: 0
- SEQUENCE: "GLDGSYLLRDS [SH2D1A_Y29]"
  STUDY TARGET: "SHP2-C SH2"
  CLASS ASSIGNMENT: 0
- SEQUENCE: "DSGRDYVSQFE [APOA1_Y53]"
  STUDY TARGET: "SHP2-C SH2"
  CLASS ASSIGNMENT: 0
- SEQUENCE: "NVADHYGVFKP [ATP6V0D2_Y271_YF]"
  STUDY TARGET: "SHP2-C SH2"
  CLASS ASSIGNMENT: 1
- SEQUENCE: "VDSNPYSHLMA [UBA5_Y53_R55H]"
  STUDY TARGET: "SHP2-C SH2"
  CLASS ASSIGNMENT: 1
- SEQUENCE: "GEEIKYMLWLS [OTC_Y55]"
  STUDY TARGET: "SHP2-C SH2"
  CLASS ASSIGNMENT: 0

====

STUDY TARGET: MERTK (UniProt Q12866)
Sequence (Q12866 whole entry, looked up): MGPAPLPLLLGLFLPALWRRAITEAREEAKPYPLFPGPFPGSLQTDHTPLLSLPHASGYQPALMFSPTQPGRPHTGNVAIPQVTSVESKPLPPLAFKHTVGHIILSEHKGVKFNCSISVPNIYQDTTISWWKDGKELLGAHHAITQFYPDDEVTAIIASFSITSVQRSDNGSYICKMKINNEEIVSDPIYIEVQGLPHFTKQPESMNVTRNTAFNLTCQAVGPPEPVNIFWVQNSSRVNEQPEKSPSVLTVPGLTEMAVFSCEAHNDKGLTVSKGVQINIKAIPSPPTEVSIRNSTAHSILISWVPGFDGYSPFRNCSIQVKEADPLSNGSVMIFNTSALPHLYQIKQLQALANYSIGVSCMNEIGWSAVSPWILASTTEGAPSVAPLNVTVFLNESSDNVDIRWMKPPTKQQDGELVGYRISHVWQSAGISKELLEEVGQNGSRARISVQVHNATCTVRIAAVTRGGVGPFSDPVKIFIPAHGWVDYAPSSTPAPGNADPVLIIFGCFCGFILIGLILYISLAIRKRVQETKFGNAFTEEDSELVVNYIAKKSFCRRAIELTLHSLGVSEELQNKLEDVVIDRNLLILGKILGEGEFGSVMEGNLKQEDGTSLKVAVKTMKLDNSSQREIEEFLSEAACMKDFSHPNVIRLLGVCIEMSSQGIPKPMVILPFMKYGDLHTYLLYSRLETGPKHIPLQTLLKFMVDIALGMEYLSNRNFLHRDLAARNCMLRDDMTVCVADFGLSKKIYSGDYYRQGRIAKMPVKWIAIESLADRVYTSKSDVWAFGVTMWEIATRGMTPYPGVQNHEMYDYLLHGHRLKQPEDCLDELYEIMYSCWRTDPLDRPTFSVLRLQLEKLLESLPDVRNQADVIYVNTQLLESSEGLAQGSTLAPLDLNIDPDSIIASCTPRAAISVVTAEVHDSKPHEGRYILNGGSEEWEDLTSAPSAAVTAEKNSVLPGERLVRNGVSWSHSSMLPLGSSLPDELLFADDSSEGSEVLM
MEASUREMENT DESCRIPTION: phosphorylation enrichment, bacterial display (enrichment ratio); higher = better substrate or ligand; peptides without Tyr show the background
# cutoff 0.5 applies to phosphorylation enrichment; >= gives true (1), < gives false (0)

- SEQUENCE: "SSAAGYACLAF [MVD_Y131_YF]"
  CLASS ASSIGNMENT: "true (1)"
- SEQUENCE: "RLQAAYNLVKR [PFKM_Y103_R100Q]"
  CLASS ASSIGNMENT: "true (1)"
- SEQUENCE: "GTAPSYGNPSS [CD19_Y378]"
  CLASS ASSIGNMENT: "false (0)"
- SEQUENCE: "LANNEYFFRVC"
  CLASS ASSIGNMENT: "true (1)"
- SEQUENCE: "QQIFTYDSGIH [JUP_Y22_T19I_YF]"
  CLASS ASSIGNMENT: "true (1)"
- SEQUENCE: "DRLASYLDKAR [KRT14_Y129_V133A]"
  CLASS ASSIGNMENT: "false (0)"
- SEQUENCE: "PFQGAYLEINK [MYO1B_Y967]"
  CLASS ASSIGNMENT: "false (0)"

====

STUDY TARGET: Fyn (UniProt P06241)
Sequence (P06241 whole entry, looked up): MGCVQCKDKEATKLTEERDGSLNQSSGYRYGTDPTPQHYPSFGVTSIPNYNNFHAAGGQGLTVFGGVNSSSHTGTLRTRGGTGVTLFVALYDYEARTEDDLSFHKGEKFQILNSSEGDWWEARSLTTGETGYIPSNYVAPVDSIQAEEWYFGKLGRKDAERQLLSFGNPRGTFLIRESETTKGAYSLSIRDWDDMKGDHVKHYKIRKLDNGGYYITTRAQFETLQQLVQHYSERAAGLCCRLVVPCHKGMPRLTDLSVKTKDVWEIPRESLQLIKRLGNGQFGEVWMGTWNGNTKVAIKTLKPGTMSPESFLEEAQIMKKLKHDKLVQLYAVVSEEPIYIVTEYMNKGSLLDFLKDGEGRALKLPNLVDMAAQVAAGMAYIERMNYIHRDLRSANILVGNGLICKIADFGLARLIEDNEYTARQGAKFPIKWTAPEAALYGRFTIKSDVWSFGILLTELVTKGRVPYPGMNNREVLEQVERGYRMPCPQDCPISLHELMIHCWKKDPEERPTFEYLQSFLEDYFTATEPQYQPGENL
MEASUREMENT DESCRIPTION: phosphorylation enrichment, bacterial display (enrichment ratio); higher = better substrate or ligand; peptides without Tyr show the background
# cutoff 0.4 applies to phosphorylation enrichment; >= gives 1 (yes), < gives 0 (no)

- SEQUENCE: "ISDNACQFMLT [MYH7_Y162_Y162C_YF]"
  CLASS ASSIGNMENT: "1 (yes)"
- SEQUENCE: "KRNSLYSFSDH [CCDC82_Y331_Q327R]"
  CLASS ASSIGNMENT: "1 (yes)"
- SEQUENCE: "KPLMPCMRYSR [SMARCE1_Y73_Y73C]"
  CLASS ASSIGNMENT: "1 (yes)"
- SEQUENCE: "WSQAMYPDLGP [STARD8_Y330_R327Q]"
  CLASS ASSIGNMENT: "1 (yes)"
- SEQUENCE: "GRKTLYSFFSP [UNG_Y8_Q4R]"
  CLASS ASSIGNMENT: "1 (yes)"
- SEQUENCE: "FDSPFYRDSLP [TSC1_Y508]"
  CLASS ASSIGNMENT: "1 (yes)"
- SEQUENCE: "MPLTEYLKRIK [CNGB3_Y200]"
  CLASS ASSIGNMENT: "0 (no)"
- SEQUENCE: "RAIGHYSATSK [FAM120A_Y328_Y327H]"
  CLASS ASSIGNMENT: "1 (yes)"
- SEQUENCE: "HNLYSYPTKYE [MYO3A_Y1396_H1400Y]"
  CLASS ASSIGNMENT: "1 (yes)"
- SEQUENCE: "RTCSSYAIEKI [PARP15_Y520]"
  CLASS ASSIGNMENT: "0 (no)"
- SEQUENCE: "RRGTGYTLSLP [MAGEC3_Y152]"
  CLASS ASSIGNMENT: "1 (yes)"

Reference source for all entries: the supplement of paper PMC10065799
